# experimentalSystem: T1, recombinant human folate receptor beta (FRβ), residues 22 to 236, with ADPG at the N-terminus and five … (human, UniProt P14207 22-236)
# T1 construct: also called hFRβ; recombinant FRβ
# T1 sequence (P14207 other isoform, or with tags, fused parts or gaps): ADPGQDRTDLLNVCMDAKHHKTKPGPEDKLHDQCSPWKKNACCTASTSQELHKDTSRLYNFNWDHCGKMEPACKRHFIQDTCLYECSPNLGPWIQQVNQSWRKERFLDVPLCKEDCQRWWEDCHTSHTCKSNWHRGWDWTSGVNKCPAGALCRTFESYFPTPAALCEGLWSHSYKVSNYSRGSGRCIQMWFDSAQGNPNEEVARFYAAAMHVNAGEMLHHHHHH
# method: combinatorial library screen: ELISA on coated antigen, then affinity (dissociation rate) ranking
readoutType: binding result

[[record]]
binder = "Clone D (affinity matured antibody from the combinatorial library) (Fab, V domains shown, Format in the screen not expressly stated) VH: EVQLVQSGAEVKKPGASVKVSCKASGYTFTYYAMHWVRQAPGQRLEWMGWINAGNGNTKYSQKFQGRVTITRDTSASTAYMELSSLRSEDTAVYYCARDISYGSFDYWGQGTLVTVSS VL: SSELTQDPAVSVALGQTVRITCQGDSLRSNYANWYQQKPGQAPVLVIYGQFNLPSGIPDRFSGSSSGNTASLTITGAQAADEADYYCDSRVSTGIHVVFGGGTKLTVLG"
experimentalvalue = "binds"

[[record]]
binder = "Clone L (affinity matured antibody from the combinatorial library) (Fab, V domains shown, Format in the screen not expressly stated) VH: EVQLVQSGAEVKKPGASVKVSCKASGYTFTIYAMHWVRQAPGQRLEWMGWINAGNGNTKYSQKFQGRVTITRDTSASTAYMELSSLRSEDTAVYYCARDISYGSFDYWGQGTLVTVSS VL: SSELTQDPAVSVALGQTVRITCQGDSLRSNYANWYQQKPGQAPVLVIYGQFNRPSGIPDRFSGSSSGNTASLTITGAQAADEADYYCDSRVSTGNHVVFGGGTKLTVLG"
experimentalvalue = "binds"

